ASSAY INFO: molar heat capacity at constant pressure
ASSAY SETUP: 325.15 K; 101.33 kPa; Crystal; Small sample (50 mg) DSC
VALUE KIND: molar heat capacity at constant pressure (J/K/mol)
Answers are plain numbers, in J/K/mol.

Below: 2 molecules and their reported molar heat capacity at constant pressure.
Measured molar heat capacity at constant pressure, `O=C(O)Cc1ccsc1` : 186.8

For `O=C(O)Cc1cccs1` the molecule record lists molar heat capacity at constant pressure as 173.6

Give me molar heat capacity at constant pressure for each of these molecules, listed below.
1. O=S1(=O)CCCOC1 [1,3-oxathiane-3,3-dioxide]
2. O=C(O)c1ccc(C(=O)O)s1
3. O=S1(=O)CCSCC1

[168.3, 177, 165.5]

###

ASSAY INFO: molar heat capacity at constant pressure
ASSAY SETUP: 305.15 K; 101.33 kPa; Crystal; Small sample (50 mg) DSC
I'd be grateful if you could share measured molar heat capacity at constant pressure for these entries.
Give bare numbers, in J/K/mol.

Some solved entries appear below for comparison.
What the record says about O=S1(=O)CCCOC1 [1,3-oxathiane-3,3-dioxide] : molar heat capacity at constant pressure is 153.8

Documented molar heat capacity at constant pressure of `O=C(O)Cc1ccsc1` : 172.7

The value of molar heat capacity at constant pressure measured for the molecule `O=S1(=O)CCSCC1` turned out to be 155.6

# molar heat capacity at constant pressure (molecule: `O=C(O)c1ccc(C(=O)O)s1` ) is 169.5

Switching to the query record.
Noted for `O=C(O)Cc1cccs1` : its molar heat capacity at constant pressure reads 163.9

###

Hi there, I'd appreciate the recorded molar heat capacity at constant pressure for every entry that follows.
ASSAY INFO: molar heat capacity at constant pressure
ASSAY SETUP: 298.15 K; 101.33 kPa; Liquid; Small sample (50 mg) DSC
Numbers only, in J/K/mol.

Known molar heat capacity at constant pressure results, listed for orientation:
The compound listed as COC(=O)Cc1ccsc1 [methyl 3-thiopheneacetate] has a reported molar heat capacity at constant pressure of 250.6

Record `CC(=O)c1cccs1` . Reported molar heat capacity at constant pressure: 205.7

The reported molar heat capacity at constant pressure of the compound COC(=O)Cc1cccs1 [methyl 2-thiopheneacetate] was 249.8

Continuing:
Entry under test: `c1cscn1` . Its molar heat capacity at constant pressure was 122.1

###

ASSAY INFO: molar heat capacity at constant pressure
ASSAY SETUP: 300.15 K; 101.33 kPa; Crystal; Small sample (50 mg) DSC
VALUE KIND: molar heat capacity at constant pressure (J/K/mol)
Answers are plain numbers, in J/K/mol.

Entry O=S1(=O)CCCOC1 [1,3-oxathiane-3,3-dioxide] — recorded molar heat capacity at constant pressure = 149.6

molar heat capacity at constant pressure recorded for this compound, O=C(O)c1ccc(C(=O)O)s1 [2,5-thiophenedicarboxylic acid] , is 167.7

The compound CC(=O)c1ccsc1 [3-acetylthiophene] showed molar heat capacity at constant pressure equal to 147.5

Item: O=C(O)Cc1ccsc1 [3-thiopheneacetic acid] | molar heat capacity at constant pressure: 169.8

List the reported molar heat capacity at constant pressure of each compound below.
1. c1csc(-c2cccs2)c1 [2,2'-bithienyl]
2. O=C(O)Cc1cccs1 [2-thiopheneacetic acid]
3. O=S1(=O)CCSCC1 [1,4-dithiane sulfone]

[218.1, 160.3, 153.5]
